All values here come from patent US20050069522A1.

System: HCV replicon (HCV 1b-377-neo replicon cells)
Experiment: HCV replicon cell line FRET assay
Assay type: cell-based
Settings: Hepatitis C virus; HCV replicon cell line, FRET assay; read-out: Replicon Inhibition Range EC50
Kindly state EC50 for each of the entries shown.

Supply measured EC50 of C[C@H](NC(=O)Cc1ccccc1)C(=O)Nc1ccc(C2SC3=Nc4ccccc4CN3C2=O)cc1 (stereo partly drawn) in your reply.
100 to 1000 nM

Consider the compound C[C@H](NC(=O)OCc1ccccc1)C(=O)Nc1ccc(C2S/C(=N\c3ccc(N4CCOCC4)cc3)N(Cc3ccco3)C2=O)cc1 (stereo partly drawn) . State its measured EC50.
< 100 nM

Given the compound COc1cccc(CN2C(=O)C(c3ccc(NC(=O)[C@H](C)NC(=O)OCc4ccccc4)cc3)S/C2=N\c2cccc(F)c2)c1 (stereo partly drawn) , write its reported EC50.
100 to 1000 nM

Provide EC50 value for the following compound: O=C(Nc1ccc(C2S/C(=N\c3ccc(F)cc3Cl)N(Cc3ccco3)C2=O)cc1)[C@@H]1CCCN1C(=O)OCc1ccccc1 (stereo partly drawn)
1000 to 5000 nM

Return the recorded EC50 value; entry: C[C@H](NC(=O)OCc1ccccc1)C(=O)Nc1ccc(C2S/C(=N\c3ccc(F)cc3Cl)N(Cc3ccco3)C2=O)cc1 (stereo partly drawn)
1000 to 5000 nM

# return recorded EC50 for input C[C@H](NC(=O)OCc1ccccc1)C(=O)Nc1ccc(C2S/C(=N\c3ccc4c(c3)OCCO4)N(Cc3ccco3)C2=O)cc1 (stereo partly drawn)
< 100 nM
